The measured values listed here are drawn from patent US20260265233A1.

pEC50 values, listed per item
# assayed.target: UniProtKB Q9HBX9
# Sequence (Q9HBX9 whole entry): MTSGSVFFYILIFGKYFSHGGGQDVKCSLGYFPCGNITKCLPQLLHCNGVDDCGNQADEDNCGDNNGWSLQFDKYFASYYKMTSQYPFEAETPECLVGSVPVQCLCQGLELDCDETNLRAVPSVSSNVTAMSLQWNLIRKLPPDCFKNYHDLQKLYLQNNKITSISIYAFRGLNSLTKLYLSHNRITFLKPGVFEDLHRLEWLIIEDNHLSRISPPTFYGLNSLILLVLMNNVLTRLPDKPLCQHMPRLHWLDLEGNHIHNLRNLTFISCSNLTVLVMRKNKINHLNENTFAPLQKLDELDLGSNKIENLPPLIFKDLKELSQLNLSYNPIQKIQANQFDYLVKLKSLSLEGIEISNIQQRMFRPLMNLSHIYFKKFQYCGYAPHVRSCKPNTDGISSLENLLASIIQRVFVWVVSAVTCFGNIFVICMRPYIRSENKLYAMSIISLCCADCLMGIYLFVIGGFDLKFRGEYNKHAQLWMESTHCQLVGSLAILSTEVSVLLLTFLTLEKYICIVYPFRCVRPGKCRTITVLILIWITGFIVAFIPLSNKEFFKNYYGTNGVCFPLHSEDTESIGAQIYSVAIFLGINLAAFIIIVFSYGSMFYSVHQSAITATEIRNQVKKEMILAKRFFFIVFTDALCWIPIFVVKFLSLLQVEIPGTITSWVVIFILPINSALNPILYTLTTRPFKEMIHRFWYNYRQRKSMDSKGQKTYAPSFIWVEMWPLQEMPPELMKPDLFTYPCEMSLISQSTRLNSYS
# test.name: hRXFP1 HEK293 cAMP assay (HTRF)
# conditions.used: HEK293 cells stably expressing human RXFP1; 30 min at rt; intracellular cAMP by HTRF
pEC50: −log10 of the molar value.
property.label: pEC50

molecule	val
COc1ccc(C2CCCN(CC(N)=O)CC2)cc1C(=O)Nc1c(C(=O)Nc2ccc(F)c(C(F)(F)F)c2)sc2cc(C(F)(F)F)ccc12 (single isomer, unassigned) [Example 70]	7.33
COc1ccc(N2CCCC(CC(=O)O)C2)cc1C(=O)Nc1c(C(=O)Nc2ccc(F)c(C(F)(F)F)c2)sc2cc(C(F)(F)F)ccc12 (single isomer, unassigned) [Example 64]	6.53
COc1ccc(C(=O)N2CC(S(C)(=O)=O)C2)cc1C(=O)Nc1c(C(=O)Nc2ccc(F)c(C(F)(F)F)c2)sc2cc(C(F)(F)F)ccc12 [Example 178]	8.28
COc1ccc(C2=NOC3CC(C(C)(C)O)CC23)cc1C(=O)Nc1c(C(=O)Nc2ccc(F)c(C(F)(F)F)c2)sc2cc(C(F)(F)F)ccc12 (single isomer, unassigned) [Example 55]	6.49
COc1ccc(/C=C\C(=O)O)cc1C(=O)Nc1c(C(=O)Nc2ccc(F)c(C(F)(F)F)c2)sc2cc(C(F)(F)F)ccc12 [Example 45]	6.01
